Tested on: Mycobacterium tuberculosis
Assay: Antitubercular activity against Mycobacterium tuberculosis H37Rv assessed as reduction in microbial growth after 7 to 14 days by broth dilution method
Assay type: functional
Conditions: time 7-14 day
// returns Not satisfied unless MIC90 is strictly below 5 µM, in which case Satisfied

# recordSmiles, cat
records = [
    ("O=C(OCC#Cc1cnc2ccccc2n1)c1ccccc1", "Not satisfied"),
    ("CS(=O)(=O)OCC#Cc1cnc2ccccc2n1", "Not satisfied"),
    ("CO[C@H]1/C=C/O[C@@]2(C)Oc3c(C)c(O)c4c(O)c(c(/C=N/N5CCN(C)CC5)c(O)c4c3C2=O)NC(=O)/C(C)=C\\C=C\\[C@H](C)[C@H](O)[C@@H](C)[C@@H](O)[C@@H](C)[C@H](OC(C)=O)[C@@H]1C", "Satisfied"),
    ("CC(=O)OCC#Cc1cnc2ccccc2n1", "Not satisfied"),
    ("OCC#Cc1cnc2ccccc2n1", "Not satisfied"),
    ("O=C(OCC#Cc1cnc2cc([N+](=O)[O-])ccc2n1)c1cccs1", "Satisfied"),
    ("O=C(OCC#Cc1cnc2ccccc2n1)c1cccs1", "Not satisfied"),
    ("O=C(OCC#Cc1cnc2cc(Cl)ccc2n1)c1cccs1", "Not satisfied"),
    ("CC(=O)OCC#Cc1cnc2cc(Cl)ccc2n1", "Not satisfied"),
    ("O=CC#Cc1cnc2ccccc2n1", "Satisfied"),
    ("O=CC#Cc1cnc2cc(Cl)ccc2n1", "Satisfied"),
]
